assay: qHTS assay to identify small molecule antagonists of the androgen receptor (AR) signaling pathway using the MDA cell line in the presence of 0.5 nM R1881 - cell viability counter screen (AID 1259242); conditions: MDA-kb2 viability, CellTiter-Fluor protease fluorescence, 16 h; series mostly up to 92.4 µM; further: nearly all actives have a fitted effect of over 45% in size
Inconclusive results are not listed. Activity calls are given as the source filed them. The call rests on the fitted dose curve; in most records, active means well fitted cell-killing curve with a large enough effect in the repeat runs; inconclusive means weak or mixed curves, or effect the other way; inactive means flat fitted curve, though single readings scatter.
Outcomes: active, inactive

INSERT INTO results (compound, cat) VALUES
  ('CCCCCCCCCCCCN1CCCC1=O', 'inactive'),
  ('O=C1OCc2ccccc21', 'inactive'),
  ('CCOC(=O)[C@H](C)O', 'inactive'),
  ('ClC(c1ccccc1)(c1ccccc1)c1ccccc1', 'inactive'),
  ('O=[N+]([O-])c1ccc(O)c2ncccc12', 'active'),
  ('CC(=O)CC(N)=O', 'inactive'),
  ('CCCCCCCCCCCC(=O)Cl', 'inactive'),
  ('Cc1ccc(C2OC[C@@H]3OC(c4ccc(C)cc4)O[C@H]([C@H](O)CO)[C@@H]3O2)cc1 (stereo partly specified)', 'inactive'),
  ('C1=CCCC1', 'inactive'),
  ('Clc1nc(C(Cl)(Cl)Cl)c(Cl)c(Cl)c1Cl', 'active'),
  ('CCc1c(C)cc(N)c(CC)c1N', 'inactive'),
  ('Nc1c(Br)cc([N+](=O)[O-])cc1Br', 'inactive'),
  ('CCCCCc1ccc(O)cc1', 'inactive'),
  ('Cn1c(=O)[nH]c2ncn(C)c2c1=O', 'inactive'),
  ('CCCCCCCCSCc1cc(C)c(O)c(CSCCCCCCCC)c1', 'inactive'),
  ('O=c1cc[nH]cc1', 'inactive'),
  ('Cn1ccnc1', 'inactive'),
  ('Cc1cc(C)c(O)c(C(C)(C)C)c1', 'inactive'),
  ('CCCCCCCCCCCCCCCCC(C(=O)O)C(O)(CC(=O)O)C(=O)O (stereo unspecified)', 'inactive'),
  ('CCNc1nc(NC(C)(C)C)nc(OC)n1', 'inactive'),
  ('CCN(CC)c1ccc(C=O)c(O)c1', 'inactive');
